Sourced from the kinase profiling compilation of Christmann-Franck et al. (2016)

# assayed.system: MYLK (human) (UniProt Q15746)
# Sequence (Q15746 whole entry, looked up): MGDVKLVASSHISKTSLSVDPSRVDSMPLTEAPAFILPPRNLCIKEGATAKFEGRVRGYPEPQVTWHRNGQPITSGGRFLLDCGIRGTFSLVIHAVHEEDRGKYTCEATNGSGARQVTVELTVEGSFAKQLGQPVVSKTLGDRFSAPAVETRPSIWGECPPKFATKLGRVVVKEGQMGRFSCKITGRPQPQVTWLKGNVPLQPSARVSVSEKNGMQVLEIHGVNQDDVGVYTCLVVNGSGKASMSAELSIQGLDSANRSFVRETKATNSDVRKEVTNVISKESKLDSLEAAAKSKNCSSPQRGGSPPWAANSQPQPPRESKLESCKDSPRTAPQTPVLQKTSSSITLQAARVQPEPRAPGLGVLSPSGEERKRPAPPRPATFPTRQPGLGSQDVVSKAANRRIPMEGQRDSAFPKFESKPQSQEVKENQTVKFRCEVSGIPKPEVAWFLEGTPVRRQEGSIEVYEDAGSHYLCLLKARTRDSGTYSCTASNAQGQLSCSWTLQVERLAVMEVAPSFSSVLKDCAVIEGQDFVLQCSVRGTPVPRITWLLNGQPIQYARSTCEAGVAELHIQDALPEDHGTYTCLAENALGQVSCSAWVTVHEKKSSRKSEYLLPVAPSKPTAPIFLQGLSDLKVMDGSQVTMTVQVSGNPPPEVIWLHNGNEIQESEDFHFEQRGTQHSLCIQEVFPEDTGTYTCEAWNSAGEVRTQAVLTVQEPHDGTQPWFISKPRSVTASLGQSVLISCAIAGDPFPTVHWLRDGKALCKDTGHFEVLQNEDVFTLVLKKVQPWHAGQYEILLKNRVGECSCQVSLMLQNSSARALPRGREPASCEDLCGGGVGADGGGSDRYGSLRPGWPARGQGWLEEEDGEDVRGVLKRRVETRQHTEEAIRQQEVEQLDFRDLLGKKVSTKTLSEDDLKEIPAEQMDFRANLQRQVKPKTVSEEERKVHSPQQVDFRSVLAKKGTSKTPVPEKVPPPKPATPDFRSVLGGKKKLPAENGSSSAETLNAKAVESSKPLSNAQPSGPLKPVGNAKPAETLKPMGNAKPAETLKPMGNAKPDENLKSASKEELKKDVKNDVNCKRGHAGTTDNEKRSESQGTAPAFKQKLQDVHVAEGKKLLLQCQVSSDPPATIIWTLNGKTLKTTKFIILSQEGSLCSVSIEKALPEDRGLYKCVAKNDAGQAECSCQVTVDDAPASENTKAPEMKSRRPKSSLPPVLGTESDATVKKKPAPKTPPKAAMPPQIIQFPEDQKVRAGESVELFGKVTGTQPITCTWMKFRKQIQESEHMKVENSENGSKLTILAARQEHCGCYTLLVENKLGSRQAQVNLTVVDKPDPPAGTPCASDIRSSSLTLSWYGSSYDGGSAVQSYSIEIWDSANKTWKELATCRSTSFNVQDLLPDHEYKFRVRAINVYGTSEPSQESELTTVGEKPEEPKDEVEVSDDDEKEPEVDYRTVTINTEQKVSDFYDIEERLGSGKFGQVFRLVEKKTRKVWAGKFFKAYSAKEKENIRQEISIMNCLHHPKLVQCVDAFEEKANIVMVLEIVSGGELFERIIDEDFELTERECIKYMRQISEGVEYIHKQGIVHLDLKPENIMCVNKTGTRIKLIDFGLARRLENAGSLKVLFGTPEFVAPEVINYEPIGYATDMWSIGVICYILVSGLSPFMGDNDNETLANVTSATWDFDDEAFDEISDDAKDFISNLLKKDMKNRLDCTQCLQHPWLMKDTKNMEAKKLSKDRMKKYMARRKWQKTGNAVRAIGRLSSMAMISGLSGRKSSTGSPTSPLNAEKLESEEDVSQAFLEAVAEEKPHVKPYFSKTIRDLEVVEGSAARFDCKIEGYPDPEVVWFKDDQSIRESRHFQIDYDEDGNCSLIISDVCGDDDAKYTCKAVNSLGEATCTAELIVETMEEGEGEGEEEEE
# assay.protocol: radiometric filter-binding kinase assay, Kinase HotSpot
# assay.setup: compound 0.5 µM; ATP 10 µM
Please respond with reported residual activity for every item in the list.
Output spec: scalar in %, unitless text.

So for "Cc1[nH]c(/C=C2\C(=O)Nc3ccc(S(=O)(=O)N(C)c4cccc(Cl)c4)cc32)c(C)c1C(=O)N1CCN(C)CC1" , the logged residual activity turned out to be 84.3

So for "Nc1ncnc2[nH]nc(Nc3ccc(F)cc3)c12" , the logged residual activity turned out to be 94.7

So for "O=C(Nc1cccc(Nc2nccc(Nc3cccc(C(F)(F)F)c3)n2)c1)C1CC1" , the logged residual activity turned out to be 90

So for "Cc1ccc(NC2=CC(=O)c3sc(C)nc3C2=O)cc1" , the logged residual activity turned out to be 90.1

So for "O=c1cc(N2CCOCC2)oc2c1ccc1ccccc12" , the logged residual activity turned out to be 92.3

---

Please respond with reported residual activity for every item in the list.
# assayed.system: UniProt:Q8TDC3
# Sequence (Q8TDC3 whole entry, looked up): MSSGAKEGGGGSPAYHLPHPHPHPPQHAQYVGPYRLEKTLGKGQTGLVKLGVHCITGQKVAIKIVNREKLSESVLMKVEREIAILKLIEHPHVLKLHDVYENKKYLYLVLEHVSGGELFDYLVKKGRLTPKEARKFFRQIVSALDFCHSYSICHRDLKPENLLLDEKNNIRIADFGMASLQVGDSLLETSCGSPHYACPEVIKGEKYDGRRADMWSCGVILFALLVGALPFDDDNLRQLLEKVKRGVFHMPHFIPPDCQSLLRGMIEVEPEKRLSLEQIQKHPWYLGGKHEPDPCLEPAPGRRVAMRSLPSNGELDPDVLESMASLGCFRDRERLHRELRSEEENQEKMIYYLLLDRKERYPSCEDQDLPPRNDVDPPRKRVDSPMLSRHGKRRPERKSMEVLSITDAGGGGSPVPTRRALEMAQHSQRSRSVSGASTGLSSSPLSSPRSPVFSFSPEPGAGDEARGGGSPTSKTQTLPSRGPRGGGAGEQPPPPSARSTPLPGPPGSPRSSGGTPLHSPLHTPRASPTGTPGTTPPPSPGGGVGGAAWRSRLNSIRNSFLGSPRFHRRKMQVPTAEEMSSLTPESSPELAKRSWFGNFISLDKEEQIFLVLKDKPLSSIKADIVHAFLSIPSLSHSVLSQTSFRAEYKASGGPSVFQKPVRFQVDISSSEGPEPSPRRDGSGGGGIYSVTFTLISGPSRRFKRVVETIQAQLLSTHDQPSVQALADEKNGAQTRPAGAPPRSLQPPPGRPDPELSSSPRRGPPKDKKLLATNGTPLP
# assay.protocol: radiometric filter-binding kinase assay, Kinase HotSpot
# assay.setup: compound 0.5 µM; ATP 10 µM

So for "Nc1ncnc2[nH]nc(Nc3ccc(F)cc3)c12" , the logged residual activity turned out to be 63%

So for "CNC(=O)c1cc(Oc2ccc(NC(=O)Nc3ccc(Cl)c(C(F)(F)F)c3)cc2)ccn1" , the logged residual activity turned out to be 95.8%

So for "CC#CC(=O)Nc1cc2c(Nc3ccc(F)c(Cl)c3)ncnc2cn1" , the logged residual activity turned out to be 102%

So for "Cc1ccc(Nc2nccc(N(C)c3ccc4c(C)n(C)nc4c3)n2)cc1S(N)(=O)=O" , the logged residual activity turned out to be 97.2%

So for "O=C1NC(=O)/C(=C/c2ccc3c(c2)OC(F)(F)O3)S1" , the logged residual activity turned out to be 88%

---

# assayed.system: DYRK3 (human) (UniProt O43781)
# Sequence (O43781 whole entry, looked up): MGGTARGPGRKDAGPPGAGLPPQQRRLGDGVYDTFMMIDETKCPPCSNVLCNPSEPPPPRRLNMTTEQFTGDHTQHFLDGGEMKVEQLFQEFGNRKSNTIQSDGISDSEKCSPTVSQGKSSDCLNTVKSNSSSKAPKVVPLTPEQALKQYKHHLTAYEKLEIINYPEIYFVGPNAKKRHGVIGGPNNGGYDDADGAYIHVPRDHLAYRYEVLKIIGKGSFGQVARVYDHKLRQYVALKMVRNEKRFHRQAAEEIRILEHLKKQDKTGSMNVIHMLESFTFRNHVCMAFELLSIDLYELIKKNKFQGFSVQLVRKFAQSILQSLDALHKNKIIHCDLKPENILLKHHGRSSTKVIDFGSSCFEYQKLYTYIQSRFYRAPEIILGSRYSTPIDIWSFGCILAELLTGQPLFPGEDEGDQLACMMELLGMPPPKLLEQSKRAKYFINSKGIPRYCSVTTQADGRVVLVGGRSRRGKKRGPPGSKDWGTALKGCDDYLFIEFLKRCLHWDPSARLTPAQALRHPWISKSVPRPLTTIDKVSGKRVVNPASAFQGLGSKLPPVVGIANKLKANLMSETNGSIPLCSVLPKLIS
# assay.protocol: radiometric filter-binding kinase assay, Kinase HotSpot
# assay.setup: compound 0.5 µM; ATP 10 µM
measured.attribute: residual activity
# do not omit the unit; it follows the number

So for "CNC(=O)c1cc(Oc2ccc(NC(=O)Nc3ccc(Cl)c(C(F)(F)F)c3)cc2)ccn1" , the logged residual activity turned out to be 92.7%

So for "COc1ccc2c(c[n+](C)c3c4cc5c(cc4ccc23)OCO5)c1OC" , the logged residual activity turned out to be 101%

So for "Cc1ccc(Nc2nccc(N(C)c3ccc4c(C)n(C)nc4c3)n2)cc1S(N)(=O)=O" , the logged residual activity turned out to be 95.9%

So for "Nc1cccc(-c2cc3c(Oc4cccc(O)c4)ncnc3[nH]2)c1" , the logged residual activity turned out to be 89.8%

So for "N#C/C(=C(/N)Sc1ccc(N)cc1)c1ccccc1C(F)(F)F" , the logged residual activity turned out to be 105%

So for "O=C1NC(=O)/C(=C/c2ccc3c(c2)OC(F)(F)O3)S1" , the logged residual activity turned out to be 100%

So for "c1ccc(-c2n[nH]c3c2oc2ccccc23)cc1" , the logged residual activity turned out to be 93%

So for "Cc1ccc(NC2=CC(=O)c3sc(C)nc3C2=O)cc1" , the logged residual activity turned out to be 96.2%

So for "CCN(CC)CCNC(=O)c1c(C)[nH]c(/C=C2\C(=O)Nc3ccc(Cl)cc32)c1C" , the logged residual activity turned out to be 81.8%

So for "CNc1cc2c(Nc3cccc(Br)c3)ncnc2cn1" , the logged residual activity turned out to be 84.4%

So for "Oc1cccc(-c2nc(N3CCOCC3)c3oc4ncccc4c3n2)c1" , the logged residual activity turned out to be 94.9%

So for "CC[n+]1c(/C=C/N(C)c2ccccc2)n(-c2ccccc2)c2ccc(-c3nc4ccccc4s3)cc21" , the logged residual activity turned out to be 98.7%

So for "CC#CC(=O)Nc1cc2c(Nc3ccc(F)c(Cl)c3)ncnc2cn1" , the logged residual activity turned out to be 101%

So for "O=c1cc(N2CCOCC2)oc2c1ccc1ccccc12" , the logged residual activity turned out to be 96%

So for "COc1cc2ncnc(Nc3cccc(Cl)c3)c2cc1OC" , the logged residual activity turned out to be 96.3%
